Each recorded value in this set is attributed to patent US11091476B2.

MEASUREMENT TARGET: CDK6/CyclinD3 (Homo sapiens (Human))
Sequence (Q00534 whole entry): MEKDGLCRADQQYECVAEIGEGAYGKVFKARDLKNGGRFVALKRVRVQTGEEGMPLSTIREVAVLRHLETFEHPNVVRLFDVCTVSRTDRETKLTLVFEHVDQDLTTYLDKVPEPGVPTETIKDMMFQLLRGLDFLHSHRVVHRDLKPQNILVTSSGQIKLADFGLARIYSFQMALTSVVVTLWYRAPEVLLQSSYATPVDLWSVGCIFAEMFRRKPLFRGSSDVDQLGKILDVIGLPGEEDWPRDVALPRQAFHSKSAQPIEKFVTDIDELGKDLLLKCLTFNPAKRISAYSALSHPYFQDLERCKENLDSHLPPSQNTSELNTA
Sequence (P30281 whole entry partner): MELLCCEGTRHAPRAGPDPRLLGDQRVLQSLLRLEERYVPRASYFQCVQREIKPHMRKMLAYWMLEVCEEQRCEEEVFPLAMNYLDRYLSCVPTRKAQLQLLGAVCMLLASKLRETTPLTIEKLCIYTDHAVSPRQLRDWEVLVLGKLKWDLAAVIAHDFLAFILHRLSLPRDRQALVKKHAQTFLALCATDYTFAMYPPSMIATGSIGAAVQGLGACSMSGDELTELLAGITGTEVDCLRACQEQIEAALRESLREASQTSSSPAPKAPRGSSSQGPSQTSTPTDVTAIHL
METHOD SUMMARY: CDK kinase inhibitory activity, ADP-Glo Kinase Assay, CDK6/CyclinD3
Assay type: biochemical
CONDITIONS: ratio of IC50s, selectivity for CDK6 over CDK1
Reported CDK1/CDK6 values for the following compounds.
Output spec: single numeric token, no unit.

Example compounds with recorded CDK1/CDK6:
CC1=Nc2c(F)cc(-c3nc(Nc4ccc(N5CCN(CCO)CC5)cn4)ncc3F)cc2C12CCCC2 [Example 28]	52.63
CCC1(C)C(C)=Nc2ccc(-c3nc(Nc4ccc(N5CCNCC5)cn4)ncc3F)cc21 (stereo not shown) [Example 32]	14.01
CC1=Nc2c(F)cc(-c3nc(Nc4ccc(N5CCNCC5)cn4)ncc3F)cc2C12CCCC2 [Example 6]	23.59

For reference, reported CDK1/CDK6 for CC1=Nc2ccc(-c3nc(Nc4ccc(C5CCN(C)CC5)cn4)ncc3F)cc2C12CCCC2 [Example 23] stands at 11.10

* * *

MEASUREMENT TARGET: CDK9/CyclinD3 (Homo sapiens (Human), UniProt P50750)
Sequence (P50750 whole entry): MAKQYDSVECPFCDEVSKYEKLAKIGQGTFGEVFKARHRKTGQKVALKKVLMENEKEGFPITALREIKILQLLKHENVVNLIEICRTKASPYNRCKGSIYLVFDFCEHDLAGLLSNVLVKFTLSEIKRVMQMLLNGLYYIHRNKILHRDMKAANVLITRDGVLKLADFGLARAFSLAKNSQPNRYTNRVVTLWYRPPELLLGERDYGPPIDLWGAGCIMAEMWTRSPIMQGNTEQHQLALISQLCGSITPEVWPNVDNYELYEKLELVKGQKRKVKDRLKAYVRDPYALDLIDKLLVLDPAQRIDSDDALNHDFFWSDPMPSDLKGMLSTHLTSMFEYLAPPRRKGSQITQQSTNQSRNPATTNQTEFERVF
Sequence (O75909 whole entry partner): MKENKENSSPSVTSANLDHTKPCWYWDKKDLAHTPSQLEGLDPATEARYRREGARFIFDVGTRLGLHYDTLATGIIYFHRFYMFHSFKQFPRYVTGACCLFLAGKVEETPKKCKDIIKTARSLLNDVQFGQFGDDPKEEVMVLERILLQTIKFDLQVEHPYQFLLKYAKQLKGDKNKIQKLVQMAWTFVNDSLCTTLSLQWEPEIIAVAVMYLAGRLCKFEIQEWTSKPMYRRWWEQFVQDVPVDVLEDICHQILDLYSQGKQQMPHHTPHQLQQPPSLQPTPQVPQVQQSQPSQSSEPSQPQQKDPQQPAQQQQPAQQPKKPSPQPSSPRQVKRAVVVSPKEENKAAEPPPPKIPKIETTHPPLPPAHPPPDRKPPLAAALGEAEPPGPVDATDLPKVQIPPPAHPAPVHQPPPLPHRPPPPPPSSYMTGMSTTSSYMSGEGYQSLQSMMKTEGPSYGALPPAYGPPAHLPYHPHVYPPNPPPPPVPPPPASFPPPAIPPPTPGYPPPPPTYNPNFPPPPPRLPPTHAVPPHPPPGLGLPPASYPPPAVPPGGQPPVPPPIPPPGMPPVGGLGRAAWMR
METHOD SUMMARY: Kinase inhibitory activity, ADP-Glo Kinase Assay, CDK9/CyclinD3
MEASURED ATTRIBUTE: IC50 (nM)
Give just the numeric value; nM need not be written.

The measured IC50 that CCC1(C)C(C)=Nc2c(F)cc(-c3nc(Nc4ccc(N5CCNCC5)cn4)ncc3F)cc21 (centres unmarked) [Example 7] showed for CDK9/CyclinD3 (Homo sapiens (Human), UniProt P50750) is 4.58

* * *

METHOD SUMMARY: Pharmacokinetic determination in mouse (LC/MS/MS of plasma)
Format: in vivo, ICR mice
CONDITIONS: male, ICR, mouse, plasma; mice, single intravenous administration, 2 mg/kg, Mean ± SD; read-out: Clearance rate Cl
MEASURED ATTRIBUTE: clearance (L/h/kg)
Please respond with the number in L/h/kg and leave the unit unwritten.

compound CCN1CCN(Cc2ccc(Nc3ncc(F)c(-c4cc(F)c5nc(C)n(C(C)C)c5c4)n3)nc2)CC1 [LY2835219, reference compound] , clearance observed: 2.98

* * *

METHOD SUMMARY: Pharmacokinetic determination in mouse (LC/MS/MS of plasma)
Assay type: in vivo, ICR mice
CONDITIONS: male, ICR, mouse, plasma; mice, single intravenous administration, 2 mg/kg, Mean ± SD; read-out: Apparent volume of distribution VZ
MEASURED ATTRIBUTE: Vd (L/kg)
Numbers only here, please. The scale is L/kg.

Query CC1=Nc2c(F)cc(-c3nc(Nc4ccc(C5CCN(C)CC5)cn4)ncc3F)cc2C12CCCC2 [Example 17] yields Vd of 19.8

* * *

MEASUREMENT TARGET: CDK6/CyclinD3 (Homo sapiens (Human))
METHOD SUMMARY: CDK kinase inhibitory activity, ADP-Glo Kinase Assay, CDK6/CyclinD3
Each entry below lists one item and its recorded pIC50 value.
The quantity pIC50 is defined as the negative base-10 logarithm of the molar concentration.

CCC1(C)C(C)=Nc2c(F)cc(-c3nc(Nc4ccc(C5CCN(C)CC5)cn4)ncc3F)cc21 (stereo not shown)	7.89
CC1=Nc2c(F)cc(-c3nc(Nc4ccc(N5CCNCC5)cn4)ncc3F)cc2C12CCCC2	8.19
CC1=Nc2ccc(-c3nc(Nc4ccc(N5CCN(C)CC5)cn4)ncc3F)cc2C12CCCC2	8.06

// below: pIC50 requested for another compound
pIC50 measured on CCN1CCN(c2ccc(Nc3ncc(F)c(-c4cc(F)c5c(c4)C4(CCCC4)C(C)=N5)n3)nc2)CC1 = 7.79
